- Reported Conditions: in toluene, 313.15 K
Measured Attribute: solubility (mole fraction)
Answer with a bare number; do not write a unit.

**Q:** Item under review: CC(S)C(=O)NCC(=O)O (stereo unspecified) . Reported solubility (mole fraction)?
**A:** 0.00077

###

- Reported Conditions: in acetonitrile, 288.15 K
Measured Attribute: solubility (mole fraction)
Answer with a bare number; do not write a unit.

**Q:** Item under review: CC(S)C(=O)NCC(=O)O (stereo unspecified) . Reported solubility (mole fraction)?
**A:** 0.0126

###

- Reported Conditions: in n-butanol, 273.15 K
Measured Attribute: solubility (mole fraction)
Answer with a bare number; do not write a unit.

**Q:** Item under review: CC(S)C(=O)NCC(=O)O (stereo unspecified) . Reported solubility (mole fraction)?
**A:** 0.0251

###

- Reported Conditions: in toluene, 273.15 K
Measured Attribute: solubility (mole fraction)

**Q:** Item under review: CC(S)C(=O)NCC(=O)O (stereo unspecified) . Reported solubility (mole fraction)?
**A:** 0.00033

###

- Reported Conditions: in n-butanol, 298.15 K
Measured Attribute: solubility (mole fraction)
Answer with a bare number; do not write a unit.

**Q:** Item under review: CC(S)C(=O)NCC(=O)O (stereo unspecified) . Reported solubility (mole fraction)?
**A:** 0.0614

###

- Reported Conditions: in toluene, 293.15 K
Measured Attribute: solubility (mole fraction)
Answer with a bare number; do not write a unit.

**Q:** Item under review: CC(S)C(=O)NCC(=O)O (stereo unspecified) . Reported solubility (mole fraction)?
**A:** 0.0005

###

- Reported Conditions: in toluene, 283.15 K
Measured Attribute: solubility (mole fraction)

**Q:** Item under review: CC(S)C(=O)NCC(=O)O (stereo unspecified) . Reported solubility (mole fraction)?
**A:** 0.00041

###

- Reported Conditions: in isobutanol, 303.15 K
Measured Attribute: solubility (mole fraction)

**Q:** Item under review: CC(S)C(=O)NCC(=O)O (stereo unspecified) . Reported solubility (mole fraction)?
**A:** 0.0281

###

- Reported Conditions: in toluene, 318.15 K
Measured Attribute: solubility (mole fraction)

**Q:** Item under review: CC(S)C(=O)NCC(=O)O (stereo unspecified) . Reported solubility (mole fraction)?
**A:** 0.00087

###

- Reported Conditions: in n-butanol, 293.15 K
Measured Attribute: solubility (mole fraction)
Answer with a bare number; do not write a unit.

**Q:** Item under review: CC(S)C(=O)NCC(=O)O (stereo unspecified) . Reported solubility (mole fraction)?
**A:** 0.0529

###

- Reported Conditions: in acetonitrile, 278.15 K
Measured Attribute: solubility (mole fraction)
Answer with a bare number; do not write a unit.

**Q:** Item under review: CC(S)C(=O)NCC(=O)O (stereo unspecified) . Reported solubility (mole fraction)?
**A:** 0.0105
